# Tested on: E. coli Strain ID 301896
# assay: Antimicrobial susceptibility testing, broth microdilution (CLSI)
# Format: cell-based
# appliedConditions: Escherichia coli; Strain ID 301896 ESCCOL, ESBL positive; Mueller-Hinton broth; read-out: minimum inhibition concentration (MIC)
# From the text: Carbapenem-resistant Klebsiella and E. coli were identified by broth microdilution as described by CLSI from the BD ID/AST microbial bank (1). Wild-type (Ampicillin sensitive) E. coli ATCC 25922 (Strain ID 300960) was used through out the experiments as a negative control. Three strains previously determined to contain KPC-1, KPC-2, and KPC-3 (Strain ID 301916=KPC-1, 301917=KPC-2, 301918=KPC-3) were used as positive controls (4). […]
Recorded MIC by entry
measuredParameter: MIC

In [3]: df
Out[3]:
                                   compound        targetortestsystem       result
0  C[C@@H](O)[C@H]1C(=O)N2C(C(=O)O)=C(SCCN=CN)C[C@H]12 [IPM, Imipenem]  E. coli Strain ID 301896    ≤ 2 µg/mL
1  CC1(C)S[C@@H]2[C@H](NC(=O)[C@H](N)c3ccccc3)C(=O)N2[C@H]1C(=O)O [Amp, Ampicillin]  E. coli Strain ID 301896   > 32 µg/mL
2  CC(C)(O/N=C(\C(=O)N[C@@H]1C(=O)N2C(C(=O)[O-])=C(C[n+]3ccccc3)CS[C@H]12)c1csc(N)n1)C(=O)O [CAZ, Ceftazidime]  E. coli Strain ID 301896  > 128 µg/mL
3  CO/N=C(\C(=O)N[C@@H]1C(=O)N2C(C(=O)O)=C(COC(C)=O)CS[C@H]12)c1csc(N)n1 [CTX, Cefotaxime]  E. coli Strain ID 301896     64 µg/mL
